Listing of recorded log10(EC50) by entry.
Target: human M4 muscarinic acetylcholine receptor (Homo sapiens)
Sequence (P08173 whole entry): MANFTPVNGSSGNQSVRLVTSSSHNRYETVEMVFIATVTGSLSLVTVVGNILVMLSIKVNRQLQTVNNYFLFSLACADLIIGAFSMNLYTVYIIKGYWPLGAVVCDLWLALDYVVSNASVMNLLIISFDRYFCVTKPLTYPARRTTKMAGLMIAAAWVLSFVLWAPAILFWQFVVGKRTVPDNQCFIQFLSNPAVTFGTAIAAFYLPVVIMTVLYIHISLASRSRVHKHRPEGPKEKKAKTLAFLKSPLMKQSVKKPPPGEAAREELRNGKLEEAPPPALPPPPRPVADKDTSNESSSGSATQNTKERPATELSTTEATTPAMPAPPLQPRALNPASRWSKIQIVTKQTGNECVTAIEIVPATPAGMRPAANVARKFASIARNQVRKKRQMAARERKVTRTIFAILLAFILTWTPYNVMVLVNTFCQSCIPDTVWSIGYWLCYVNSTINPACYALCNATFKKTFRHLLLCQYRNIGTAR
Test: human FLIPR-based M4 PAM assay (Ca2+ dye fluorescence, CHO-K1 cells with human M4 receptor and Gαqi5)
Settings: inflection point (IP) of dose response curve, FLIPR Tetra, acetylcholine at 20% of maximum response
Procedure: In a typical experiment the M4 muscarinic acetylcholine receptor modulating activity of the compounds of the present invention was determined in accordance with the following experimental method. […] Following dye loading the cell plates are placed in a FLIPR Tetra instrument and while monitoring dye fluorescence (excitation […]), 10 uL of test substance at increasing concentrations is added, and fluorescence values are recorded for 4 min. […]
readoutName: log10(EC50) (log10 of the value in nM)

>  <molecule>
Cc1c(N2CCC(OCC3(C)CC3)C3CC32)nc2c(c1C)C(=O)N1CCOCC21 (stereo not shown)

>  <log10(EC50)>
2.18

$$$$
>  <molecule>
Cc1c(N2CCC(OCC3(C)CC3)C3CC32)nc2c(c1C)C(=O)N(CCC#N)C2 (single isomer, unassigned) [Example 15]

>  <log10(EC50)>
1.70

$$$$
>  <molecule>
Cc1c(N2CCC(OCC3(C)CC3)C3CC32)nc2c(c1C)C(=O)N(CCS(C)(=O)=O)C2 (single isomer, unassigned) [Example 17]

>  <log10(EC50)>
2.01

$$$$
>  <molecule>
Cc1c(N2CCC(OCC3(C)CC3)C3CC32)nc2c(c1C)C(=O)N(C)C2CO (single isomer, unassigned) [Example 5]

>  <log10(EC50)>
2.07

$$$$
>  <molecule>
Cc1c(N2CCC(OCC3(C)CC3)C3CC32)nc2c(c1C)C(=O)N(CCS(C)(=O)=O)C2 (single isomer, unassigned) [Example 18]

>  <log10(EC50)>
4.31

$$$$
>  <molecule>
Cc1cc2c(nc1N1CCC(Oc3ccc4c(c3)COC4)C3CC31)CNC2=O (stereo not shown) [Example 28]

>  <log10(EC50)>
1.88

$$$$
>  <molecule>
Cc1cc2c(nc1N1CCC(Oc3ccc4c(c3)COC4)C3CC31)CNC2=O (stereo not shown) [Example 30]

>  <log10(EC50)>
2.86

$$$$
